Assay: Inhibition of human recombinant FBPase using fructose-1,6-biphosphate as substrate incubated for 3 mins prior to substrate addition by spectrophotometric analysis
measured-endpoint: IC50

Some solved entries appear below for comparison.
[
  {
    "compound": "CCOc1cc2ncnc(Nc3cc(-c4csc(C)n4)cc(C(F)(F)F)c3)c2cc1OCC",
    "IC50": "> 10000 nM"
  },
  {
    "compound": "Cc1cc(Cl)ccc1OCCCC(=O)NC(CC(C)C)C(=O)O (centres undefined)",
    "IC50": "2440 nM"
  },
  {
    "compound": "CCOc1cc2ncnc(Nc3cccc(-c4coc(C)n4)c3)c2cc1OCC",
    "IC50": "500 nM"
  }
]

Query :: // IC50 lookup, key: `COc1cc2ncnc(Nc3cccc(-c4csc(C)n4)c3)c2cc1OC`
Result :: 4400 nM

====

Listed compounds paired with reported pIC50
Experiment: Inhibition of human recombinant FBPase using fructose-1,6-biphosphate as substrate incubated for 3 mins prior to substrate addition by spectrophotometric analysis
The quantity pIC50 is defined as the negative base-10 logarithm of the molar concentration.

[
  {
    "compound-structure": "CCOc1cc2nc(CCCCl)nc(Nc3cccc(-c4csc(C)n4)c3)c2cc1OCC",
    "measured-endpoint": "pIC50",
    "numeric-result": 5.39
  },
  {
    "compound-structure": "CCOc1cc2ncnc(Nc3ccc(F)c(Cl)c3)c2cc1OCC",
    "measured-endpoint": "pIC50",
    "numeric-result": 6.28
  }
]

Please turn your attention to the following entry.
Query :: So what's the measured pIC50 for this one? `COc1cc2c(Nc3cccc(-c4csc(C)n4)c3)ncnc2cc1OC(C)C`
Result :: 5.64

====

Species: Homo sapiens
Experiment: Inhibition of human recombinant FBPase using fructose-1,6-biphosphate as substrate at 10 uM incubated for 3 mins prior to substrate addition by spectrophotometric analysis
# class assignment by measured inhibition: LOW: < 70%; MEDIUM: ≥ 70% and < 80%; HIGH: ≥ 80%

As a guide, the following entries are already answered.
[
  {
    "compound": "O=C(OCc1ccc([N+](=O)[O-])cc1)c1ccccc1[N+](=O)[O-]",
    "label-value": "HIGH"
  },
  {
    "compound": "O=S(=O)(SCCCCSS(=O)(=O)c1ccc(Cl)cc1)c1ccc(Cl)cc1",
    "label-value": "LOW"
  },
  {
    "compound": "COC(=O)CC(=O)CC(=O)c1cccc([N+](=O)[O-])c1",
    "label-value": "MEDIUM"
  },
  {
    "compound": "O=C(CCCOc1ccc(Cl)cc1Cl)NC(CC1NCc2ccccc21)C(=O)O (stereo unspecified)",
    "label-value": "LOW"
  },
  {
    "compound": "O=C(O)c1ccccc1C(=O)CCC(=O)c1ccccc1C(=O)O",
    "label-value": "HIGH"
  }
]

Kindly consider the entry below.
Query :: Lab log: `C=CCN1C(=O)/C(=C/c2ccccc2OCC(=O)O)SC1=S` — assign inhibition category
Result :: MEDIUM

====

Experiment: Inhibition of human recombinant FBPase using fructose-1,6-biphosphate as substrate incubated for 3 mins prior to substrate addition by spectrophotometric analysis
measured-endpoint: IC50 (µM)
The answer is to be given in µM; state only the numeric part.

[
  {
    "compound-structure": "CCOc1ccc(-c2csc(C)n2)cc1Nc1ncnc2cc(OCC)c(OCC)cc12",
    "unit-text": "µM",
    "IC50": 1.8
  },
  {
    "compound-structure": "CCOc1cc2ncnc(Nc3cccc(-c4csc(NC)n4)c3)c2cc1OCC",
    "unit-text": "µM",
    "IC50": 0.8
  },
  {
    "compound-structure": "O=S(=O)(O)c1ccccc1/C=N/N=C/c1ccccc1S(=O)(=O)O",
    "unit-text": "µM",
    "IC50": 0.15
  }
]

Next item in the queue.
Query :: # input compound: `CCOc1cc2nc(CN3CCCC3)nc(Nc3cccc(-c4csc(C)n4)c3)c2cc1OCC` ; wanted: its IC50
Result :: 6.1

The values you see were collected from ChEMBL document CHEMBL2086262.
